Experiment: gMDCK (P-gp knockout MDCK) monolayer permeability assay
Settings: dog, MDCK, pH 7.4, Lenalidomide Permeability in gMDCK Cells, typical assay conditions, 500 uM
resultType: Papp at 3 h, 500 µM
The answer should read as a number with its unit following.

Papp at 3 h, 500 µM measured on Nc1cccc2c1CN(C1CCC(=O)NC1=O)C2=O (stereo not shown) [Lenalidomide] = 0.24 ×10⁻⁶ cm/s

* * *

Experiment: gMDCK (P-gp knockout MDCK) monolayer permeability assay
Conditions: dog, MDCK, pH 7.4, Lenalidomide Permeability in gMDCK Cells, shaking (1000 rpm), 250 uM
resultType: Papp at 3 h, 250 µM (nm/s)
Answer with a number only, understood to be in nm/s.

Papp at 3 h, 250 µM measured on Nc1cccc2c1CN(C1CCC(=O)NC1=O)C2=O (stereo not shown) [Lenalidomide] = 1.4
